Experiment: Toxicity study: body and organ weights, blood count, blood chemistry
Conditions: 50 mg/kg, n = 10; saline n = 5: 35.8 ± 18.9
No end group written: not given here.
Measured metric: ALT (U/L)
Numbers only; they are read as U/L.

Qu. Consider the sequence RWKFGGFKWR [RP-832c] and give its measured ALT.
Ans. 27.2

----------
Experiment: Toxicity study: body and organ weights, blood count, blood chemistry
Conditions: 50 mg/kg, n = 10; saline n = 5: 140.0 ± 75.5
No end group written: not given here.
Measured metric: AST (U/L)
Numbers only; they are read as U/L.

Qu. Consider the sequence RWKFGGFKWR [RP-832c] and give its measured AST.
Ans. 91.2
